system: ACHN; test: NCI tumour cell line growth inhibition, 48 h
Calls of active or inactive are those of the source. No stated cut-off is given here; in the data, active = GI50 up to about 1.1 µM and inactive = higher.
Recorded GI50 for the following molecules
EXPERIMENTAL READOUT: GI50

>>> data_value("N#Cc1nc(-c2ccccn2)c(-c2ccccn2)nc1C#N")
"1.11 µM (active)"
>>> data_value("OCCNC1c2cc(Cl)ccc2-c2c(Cl)cc(Cl)cc21 (configuration not stated)")
"25.9 µM (inactive)"
>>> data_value("O=c1[nH]c2nccn2c2c1SCCN2")
"> 100 µM (inactive)"
>>> data_value("COC1C(N(C)C)=C(c2ccccc2)C(=O)N2CCc3ccccc3C12 (configuration not stated)")
"> 100 µM (inactive)"
>>> data_value("NC(Cc1ccc(OCc2ccccc2)cc1)C(=O)NC(Cc1ccccc1)C(=O)Oc1c(Cl)c(Cl)c(Cl)c(Cl)c1Cl (configuration not stated)")
"16.5 µM (inactive)"
>>> data_value("COCN1C(=O)[C@@H]2C[C@@H](OC/C=C/CBr)CN2C(=O)c2ccccc21")
"19.9 µM (inactive)"
>>> data_value("CC(=O)/C(=C\\c1cccc([N+](=O)[O-])c1)C(=O)Nc1ccccc1C")
"> 100 µM (inactive)"
>>> data_value("CSc1nc(Cl)c2c(n1)Sc1ncnn1C2O (configuration not stated)")
"4.29 µM (inactive)"
>>> data_value("C#CCSc1nc(-c2ccco2)n[nH]1")
"> 100 µM (inactive)"
>>> data_value("COc1c(C)c2c(c(O)c1C/C=C(\\C)CCC(=O)O)C(=O)OC2")
"1.75 µM (inactive)"
>>> data_value("COc1cccc2c1C(=O)c1c(O)c3c(c(O)c1C2=O)C[C@@](O)(C(C)=O)C[C@@H]3OC1CC(N(C)C)C(O)C(C)O1 (some centres not stated)")
"0.00337 µM (active)"
>>> data_value("CCCC[C@@H]1CCN2C[C@@H](O)[C@@H](O)[C@@H]2[C@H]1O")
"> 100 µM (inactive)"

###

test system: MDA-MB-435; assay: NCI tumour cell line growth inhibition, 48 h
Calls of active or inactive are those of the source. No stated cut-off is given here; in the data, active = GI50 up to about 1.1 µM and inactive = higher.
Classes used: true (active), false (inactive)

>>> group_label("OCCNC1c2cc(Cl)ccc2-c2c(Cl)cc(Cl)cc21 (stereo not given)")
"false"
>>> group_label("COc1ccc(C[C@H]2NC[C@H](O)[C@H]2OC(C)=O)cc1")
"true"
>>> group_label("COC(=O)C(CNC(=O)/C=C/c1ccc(OC(C)=O)c(OC(C)=O)c1)NC(=O)/C=C/c1ccc(OC(C)=O)c(OC(C)=O)c1 (stereo not given)")
"false"
>>> group_label("CNC(=S)N(C1CCCCC1)C1CCCCC1")
"false"
>>> group_label("Nc1ccn([C@H]2CO[C@@H](CO)[C@@H]2O)c(=O)n1")
"false"

###

system: NCI/ADR-RES; experiment: NCI tumour cell line growth inhibition, 48 h
Calls of active or inactive are those of the source. Cut-off read from the data, not from the text of the source: active = GI50 up to about 1.1 µM and inactive = higher.
EXPERIMENTAL READOUT: GI50

>>> data_value("CC(C)(C)CN1[C@@H]2CCCC[C@H]2N(CC(C)(C)C)P1(=O)C(O)/C=C/c1ccccc1 (stereo partly drawn)")
"32.7 µM (inactive)"
>>> data_value("CC1=C2C(=O)NN=C2CCN1c1ccc(Br)cc1")
"> 100 µM (inactive)"
>>> data_value("OC1CN2Cc3cc4c(cc3[C@]13C=C[C@@H](O)CC23)OCO4 (stereo partly drawn)")
"54.3 µM (inactive)"

###

Documented GI50 across a set of compounds
tested on: UO-31; experiment: NCI tumour cell line growth inhibition, 48 h
The source made the active and inactive calls. Cut-off read from the data, not from the text of the source: active = GI50 up to about 1.1 µM and inactive = higher.
EXPERIMENTAL READOUT: GI50

>>> data_value("CC(C)(C)[Si](C)(C)OCC1OC(n2cnc3c(N)ncnc32)CC1O (stereo not drawn)")
"13 µM (inactive)"
>>> data_value("Cn1c2ccccc2c(=NNc2ccccc2C(=O)O)c2ccccc21")
"18.4 µM (inactive)"
>>> data_value("CCCCCCCCCCCCCCCC(=O)Nc1ccn(C2CCC(COP(=O)(O)OCC3OC(n4cc(F)c(=O)[nH]c4=O)CC3OC(C)=O)O2)c(=O)n1 (stereo not drawn)")
"7.48 µM (inactive)"
>>> data_value("CCC1(N=[N+]=[N-])C(=O)c2ccccc2N(C)C1=O (stereo not drawn)")
"> 100 µM (inactive)"
>>> data_value("CCn1c2c(c3c(C(=O)OC)c(O)ccc31)C(=O)c1ccccc1C2=O")
"4.57 µM (inactive)"
>>> data_value("O=C(CCC1CCCCC1)NCc1ccc(C(=O)O)cc1")
"> 100 µM (inactive)"
>>> data_value("OCC(O)COCn1cc(Cn2ncc3c(O)ncnc32)nn1 (stereo not drawn)")
"> 100 µM (inactive)"
>>> data_value("COc1ccc(NC(=S)c2ccc(CN3CCCCC3)s2)cc1")
"18.4 µM (inactive)"

###

A collection of compounds and their measured GI50
test system: NCI-H23; assay: NCI tumour cell line growth inhibition, 48 h
Active and inactive are the calls of the source. Rule as the data show it: active = GI50 up to about 1.1 µM and inactive = higher.
EXPERIMENTAL READOUT: GI50

>>> data_value("CCC(=O)NC(Nc1cccc(F)c1C)(C(F)(F)F)C(F)(F)F")
"> 100 µM (inactive)"
>>> data_value("CCOC(=O)C12OC(CCC1=O)C(C(=O)OC)=C2C(=O)OC (centres undefined)")
"> 10 µM (inactive)"
>>> data_value("Cc1c2c(n3c(nc4ccccc43)c1C#N)N(c1ccc(Cl)cc1)CC2")
"> 100 µM (inactive)"
>>> data_value("O=C1CCCC2C3CC(CN12)C1CCCCN1C3.[O-][Cl+3]([O-])([O-])O (centres undefined)")
"> 100 µM (inactive)"
>>> data_value("Cc1cc(C)cc(NC(=O)CCC(=O)C2CCC/C2=N\\NC(=O)C(=O)NN)c1 (centres undefined)")
"> 100 µM (inactive)"
>>> data_value("CCCCCCCCCCCCCCCC(=O)Nc1ccn(C2CCC(COP(=O)(O)OCC3OC(n4cc(F)c(=O)[nH]c4=O)CC3OC(C)=O)O2)c(=O)n1 (centres undefined)")
"8.18 µM (inactive)"
>>> data_value("O=c1[nH]c(=O)n(C2CC(O)C(O)C(CO)O2)cc1F (centres undefined)")
"> 100 µM (inactive)"
>>> data_value("Cc1cc(C)nc(NS(=O)(=O)c2ccc(Nc3c4ccccc4nc4ccc(C(=O)Nc5ccc(S(N)(=O)=O)cc5)cc34)cc2)n1")
"> 100 µM (inactive)"
>>> data_value("CCCCn1/c(=N/C(=S)N(C)C)ss/c1=N\\C(=S)N(C)C")
"> 100 µM (inactive)"
>>> data_value("O=S(=O)(O)C(O)/C=C/c1ccccc1 (centres undefined)")
"> 100 µM (inactive)"
>>> data_value("Cn1c(=O)cc(NNc2ccccc2)[nH]c1=O")
"> 100 µM (inactive)"
>>> data_value("Nc1ccc(OCCCc2c(-c3ccccc3)[nH]c(N)nc2=O)cc1")
"47.2 µM (inactive)"
>>> data_value("C[C@@H]1OC2(O)[C@H]3CCCN3S(=O)(=O)CCN2C1=O (some centres undefined)")
"> 100 µM (inactive)"
>>> data_value("N#CCCN(CCC#N)c1ccc(C(=O)NN)cc1")
"> 100 µM (inactive)"
>>> data_value("CCOC(=O)C(CS)NC(=O)CCCCCCCC(=O)NC(CS)C(=O)OCC (centres undefined)")
"> 100 µM (inactive)"
>>> data_value("CC1(C)OC2C(=O)C=C(COCc3ccccc3)C2O1 (centres undefined)")
"19.2 µM (inactive)"
>>> data_value("O=c1[nH]nc(-c2ccccc2)n1/N=C\\c1ccccc1")
"> 100 µM (inactive)"
>>> data_value("c1cncc(CNCCN2CCNCC2)c1")
"> 100 µM (inactive)"
>>> data_value("CC(NCCN(C)C)C1CCC2C3CCc4cc(O)ccc4C3CCC12C (centres undefined)")
"4.45 µM (inactive)"

###

tested on: SW-620; assay: NCI tumour cell line growth inhibition, 48 h
Activity calls are given as the source filed them. Cut-off read from the data, not from the text of the source: active = GI50 up to about 1.1 µM and inactive = higher.
EXPERIMENTAL READOUT: GI50

>>> data_value("O=C1O[C@H](COC(=O)c2ccccc2)[C@@H](OC(=O)c2ccccc2)C=C1OC(=O)c1ccccc1")
"19 µM (inactive)"
>>> data_value("CC(=O)N1C(c2[nH]c3ccccc3c2-c2ccccc2)CCN1c1ccccc1 (stereo not drawn)")
"> 10 µM (inactive)"
>>> data_value("C=CC[C@H]1[C@H](O[Si](C)(C)C(C)(C)C)C=CC(=O)[C@@H]1CC(=O)OCC")
"15.5 µM (inactive)"
>>> data_value("COc1cc(N(Cc2ccc3nc(OC)c(OC)nc3c2)Cc2ccc3nc(OC)c(OC)nc3c2)cc(OC)c1OC")
"> 50 µM (inactive)"
>>> data_value("CC1=C(/C=C/C2=CC(=C\\C(=O)O)/CC(C3=C(C)CCCC3(C)C)C2)C(C)(C)CCC1 (stereo not drawn)")
"15 µM (inactive)"
>>> data_value("COc1ccc(/C=C/C(=O)CCN2CCN(CCC(=O)/C=C/c3ccc(OC)cc3)CC2)cc1")
"4.1 µM (inactive)"
>>> data_value("CC1C(C#N)(C#N)C(C#N)=C(N)C1(C)[N+](=O)[O-] (stereo not drawn)")
"51.1 µM (inactive)"
>>> data_value("CCOC(=O)C(=O)C(=O)NN(C)C1=NCCN1")
"> 100 µM (inactive)"
>>> data_value("C#C[C@]1(O)CC[C@H]2[C@@H]3CCC4=C/C(=N/OC(=O)c5cccc6c(=O)c7ccccc7[nH]c56)CCC4[C@H]3CC[C@@]21CC (stereo partly drawn)")
"24 µM (inactive)"
>>> data_value("Cc1nc2ccc(NC(=S)Nc3ccccc3)cc2c(=O)n1-c1ccccc1")
"76.7 µM (inactive)"
>>> data_value("CCCCCCCCCOC(=O)c1cnc(Cl)cn1")
"17.3 µM (inactive)"
>>> data_value("CC(C)/C(Cl)=N\\OC(=O)Nc1ccc(F)cc1F")
"1.78 µM (inactive)"
>>> data_value("CCCCC(=O)c1c(O)nc2sccn2c1=O")
"> 10 µM (inactive)"
